Assignment: determine reported pIC50 for the given molecules.
Molecular target: soluble, human recombinant NEP (Homo sapiens)
Construct: soluble, human recombinant NEP; Crine, University of Montreal, Canada
Sequence (P08473 52-750 limits assumed): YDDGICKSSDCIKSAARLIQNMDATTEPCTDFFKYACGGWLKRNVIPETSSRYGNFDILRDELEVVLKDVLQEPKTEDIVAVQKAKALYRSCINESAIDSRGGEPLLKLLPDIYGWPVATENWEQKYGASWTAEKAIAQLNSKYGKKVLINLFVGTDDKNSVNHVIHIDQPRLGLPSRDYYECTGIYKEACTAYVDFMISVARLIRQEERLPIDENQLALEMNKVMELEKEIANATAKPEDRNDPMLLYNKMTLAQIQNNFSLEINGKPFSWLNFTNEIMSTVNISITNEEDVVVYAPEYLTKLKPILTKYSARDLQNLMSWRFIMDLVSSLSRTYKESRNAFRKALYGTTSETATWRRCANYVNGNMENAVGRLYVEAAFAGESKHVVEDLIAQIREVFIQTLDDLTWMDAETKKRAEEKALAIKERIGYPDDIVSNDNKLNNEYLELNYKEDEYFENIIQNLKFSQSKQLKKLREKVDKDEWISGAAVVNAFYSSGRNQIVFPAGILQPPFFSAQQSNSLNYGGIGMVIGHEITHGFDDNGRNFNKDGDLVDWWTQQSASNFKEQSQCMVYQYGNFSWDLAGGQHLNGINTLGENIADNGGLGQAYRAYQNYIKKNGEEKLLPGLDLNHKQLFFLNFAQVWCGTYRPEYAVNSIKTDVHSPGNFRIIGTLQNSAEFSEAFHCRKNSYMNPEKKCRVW
Assay: In-vitro investigation of the NEP inhibitory action (fluorescence-quenched Big-ET-1 analogue, HPLC)
Hey, just a heads up that pIC50 is the negative log base 10 of the concentration in molar.

Ask | Which pIC50 reading was recorded for the molecule CC(C)NC(=O)CC(CC1(C(=O)N[C@H]2CCc3ccccc3N(CC(=O)O)C2=O)CCCC1)C(=O)O (stereo in doubt) ?
Reply | 7.75

Ask | Which pIC50 reading was recorded for the molecule CC(=O)CC(C)(C)NC(=O)CC(CC1(C(=O)N[C@H]2CCc3ccccc3N(CC(=O)O)C2=O)CCCC1)C(=O)O (mixture of isomers) ?
Reply | 7.77

Ask | Which pIC50 reading was recorded for the molecule CC(C)N(C)C(=O)CC(CC1(C(=O)NC2CCc3ccccc3N(CC(=O)O)C2=O)CCCC1)C(=O)O (racemic) ?
Reply | 7.86

The reported measurements were obtained from patent US20080085889A1.
